SUBJECT_OF_TEST: T1, human claudin 6 (CLDN6) (human, UniProt P56747 1-220)
T1 construct: also called human CLDN6; hCLDN6
T1 sequence: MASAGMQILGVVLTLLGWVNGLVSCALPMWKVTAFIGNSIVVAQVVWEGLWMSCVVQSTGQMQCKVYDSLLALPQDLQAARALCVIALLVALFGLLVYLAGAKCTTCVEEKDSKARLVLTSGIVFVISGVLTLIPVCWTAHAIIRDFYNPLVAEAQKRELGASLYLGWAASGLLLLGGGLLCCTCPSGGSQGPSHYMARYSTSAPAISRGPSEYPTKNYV
ASSAY_EXPLANATION: FACS, HEK293T/human CLDN6 cells
PARAMETER: EC50 (nM)
Report the figure in nM without appending any unit label.

For orientation, consider the following solved cases.
BINDER	EC50 [nM]
BG87P-m8 (antibody, V domains shown, Variant of BG87P-Bz0 with H33A; constant regions not restated (parent: human IgG1/kappa)) VH: QIQLVQSGAEVKKPGASVKVSCKASGYSFTDYAINWVRQAPGQRLEWMGWIYPGSGYTKYNEKFKVRVTLTVDTSASTAYMELSSLRSEDTAVYFCARSGIYHYVSSYYFDHWGKGTTVTVSS VL: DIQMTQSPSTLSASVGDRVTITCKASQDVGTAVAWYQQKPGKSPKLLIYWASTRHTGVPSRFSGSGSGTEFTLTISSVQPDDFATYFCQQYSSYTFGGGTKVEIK	48.7
BG87P-27 (antibody, V domains shown) VH: QVQLVQSGAEVKKPGASVKVSCKASGYSFTDYHINWVRQAPGQRLEWMGWIYPGSGYTKYNEKFKGRVTLTRDTSASTAYMELSSLRSEDTAVYFCARSGIYHYVSSYYFDHWGKGTTVTVSS VL: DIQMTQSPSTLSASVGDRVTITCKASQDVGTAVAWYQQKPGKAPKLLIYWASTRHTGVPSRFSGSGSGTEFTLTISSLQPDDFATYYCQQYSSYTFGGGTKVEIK	2
BG87P-m3 (antibody, V domains shown, PTM removal variant of chBG87P (VH V65G); constant regions not restated (parent: human IgG1/kappa)) VH: QIQLQQSGPELVKPGASVKISCKASGYSFTDYHINWVKQRPGQGLEWIGWIYPGSGYTKYNEKFKGKATLTVDTSSSTAYMHLTSLTSEDSAVYFCARSGIYHYVSSYYFDHWGQGTTLTVSS VL: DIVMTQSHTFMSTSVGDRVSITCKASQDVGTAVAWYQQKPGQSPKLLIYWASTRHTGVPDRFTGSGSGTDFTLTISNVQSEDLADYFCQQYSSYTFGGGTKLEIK	2.32

// switching to the query binder
Query: EC50; subject: BG87P-25 (antibody, V domains shown) VH: QIQLVQSGAEVKKPGASVKVSCKASGYSFTDYHINWVRQAPGQRLEWMGWIYPGSGYTKYNEKFKGRVTLTRDTSASTAYMELSSLRSEDTAVYYCARSGIYHYVSSYYFDHWGKGTTVTVSS VL: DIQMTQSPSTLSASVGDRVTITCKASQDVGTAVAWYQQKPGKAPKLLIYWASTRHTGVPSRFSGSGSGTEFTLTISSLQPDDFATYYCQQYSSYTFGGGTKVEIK
2.33
